Where do these numbers come from? They come from PubChem BioAssay.

targetOrSystem: Left-right determination factor 2 (Homo sapiens) (UniProt O00292)
Sequence (O00292 whole entry, looked up): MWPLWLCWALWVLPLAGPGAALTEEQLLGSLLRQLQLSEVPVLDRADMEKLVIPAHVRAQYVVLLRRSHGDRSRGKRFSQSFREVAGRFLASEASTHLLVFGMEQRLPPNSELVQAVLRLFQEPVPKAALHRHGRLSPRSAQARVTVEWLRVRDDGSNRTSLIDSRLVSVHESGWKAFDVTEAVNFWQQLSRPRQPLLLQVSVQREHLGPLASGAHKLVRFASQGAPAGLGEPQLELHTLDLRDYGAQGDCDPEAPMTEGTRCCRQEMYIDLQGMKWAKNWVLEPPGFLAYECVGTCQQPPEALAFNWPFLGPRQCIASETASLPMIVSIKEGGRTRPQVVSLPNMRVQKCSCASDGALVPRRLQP
testName: small molecules binding LEFTY2 protein – biochemical, small-molecule microarray, 635 nm fluorescence scan, primary screen (AID 1110)
conditionLabel: higher = more signal

molecule: CC(C)N1C(=O)c2ccccc2[C@](C)(C(=O)NCCCN(C)C)[C@@H]1c1ccc(CO)cc1
composite z-score: -0.553

molecule: C=CCN1C(=O)[C@]2(COC(c3ccc(OCCCO)cc3)=N2)Cc2ccccc21
composite z-score: -0.352

molecule: C=C(/C(=C/C[C@@H](OC(=O)c1ccncc1)c1ccc(CO)o1)c1cc(C(=O)OC)ccc1OC)C(C)C
composite z-score: 0.512

molecule: COc1ccccc1CN1C(=O)c2ccccc2[C@](Cc2ccccc2I)(C(=O)NCc2ccccc2)[C@@H]1c1ccc(CO)cc1
composite z-score: -0.703

molecule: Cc1ccc(N2C(=O)c3ccccc3[C@@H](C(=O)NC(C)C)[C@@H]2c2ccc(CO)cc2)nc1
composite z-score: 0.0413

molecule: C=CCN1C(=O)[C@@]2(O[C@@H](CCO)[C@H]([Si](C)(C)c3ccc(OC)cc3)[C@H]2C)c2cc(NC(C)=O)ccc21
composite z-score: 1.45

molecule: O=P(NCC1(CC2(c3ccccc3)CO2)CC1)(c1ccccc1)c1ccccc1 (stereo unspecified)
composite z-score: -1.79

molecule: [N-]=[N+]=Nc1ccccc1[C@@H]1OC(c2ccc(OCCCO)cc2)=N[C@]1(CCS(=O)(=O)c1ccccc1)C(=O)O
composite z-score: 0.459

molecule: C=C(C(=O)CC[C@@H](OC(=O)c1cccnc1)c1ccc(CO)o1)C(C)C
composite z-score: 0.46

molecule: CCCNC(=O)[C@@]1(c2ccc([N+](=O)[O-])cc2)CC(=O)N(CC23CC4CC(CC(C4)C2)C3)[C@@H]1c1ccc(CO)cc1I
composite z-score: 0.152

molecule: O=C1OCC=C[C@H]2OC34C=CCN(CCN5CCOCC5)C(=O)[C@H]3N(CCCCCCO)C(=O)[C@@H]4[C@@H]12 (stereo partly specified)
composite z-score: -0.207

molecule: COC(=O)[C@@]1(Cc2ccc(OC)cc2)[C@H]2c3cc(C(=O)N4CCCC4)n(CCc4ccccn4)c3C[C@H]2CN1C(=O)c1ccccc1
composite z-score: -0.694

molecule: O=C1C2C=CC(C(O)C3CC=CCC3)N(n3cnnc3)C2C(=O)N1Cc1ccccc1 (stereo unspecified)
composite z-score: -0.49

molecule: COC(=O)[C@@]1(Cc2ccc(OC)cc2)[C@H]2c3cc(C(=O)N4CCCC4)n(CCN4CCOCC4)c3C[C@H]2CN1C(=O)c1ccccc1
composite z-score: 0.285

molecule: O=C1O[C@@H](c2ccccc2)[C@@H](c2ccccc2)N2[C@@H](c3ccc(O)cc3)[C@]3(C(=O)Nc4ccccc43)[C@@H](C(=O)NC[C@H](O)c3ccccc3)[C@H]12
composite z-score: 0.091

molecule: C=CCCN(CC#C[C@H]1Oc2ccccc2S(=O)(=O)N2CCC[C@@H]12)S(=O)(=O)c1ccc(C)cc1
composite z-score: 0.148

----------
testName: COS7 lysate on small-molecule microarray, probe aHis, 635 nm (AID 1123);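 note: z-score combines 667nm fluorescence intensity with signal-to-noise per printed compound spot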
conditionLabel: COS7 cell lysate, fluorescence, higher = more signal
Listing of entries alongside the reported composite z-score.

compound: O=C1C[C@@](C(=O)O)(c2ccc([N+](=O)[O-])cc2)[C@@H](c2ccc(CO)cc2I)N1CC12CC3CC(CC(C3)C1)C2
composite z-score: 1.63

compound: C=CCNC(=O)[C@H]1[C@@H]2C(=O)O[C@@H](c3ccccc3)[C@@H](c3ccccc3)N2[C@@H](c2ccc(O)cc2)[C@]12C(=O)Nc1ccc(C#Cc3ccc(OC)cc3)cc12
composite z-score: 1.68

compound: CN1C(=O)C2C(C1=O)C1C=C(c3ccc(CO)cc3)C2C(C2CC2)N1Cc1cc2c(cc1Br)OCO2 (configuration not stated)
composite z-score: 3.13

compound: C[N+](C)(C)CCCCNC(=O)[C@H]1C[C@H]2C(=O)N3CCC[C@H]3C(=O)N2[C@H]1c1ccc(O)cc1
composite z-score: 2.08

compound: O=P(NCC1(CC2(c3ccccc3)CO2)CC1)(c1ccccc1)c1ccccc1 (configuration not stated)
composite z-score: 2.49

compound: COC(=O)C(CC#Cc1ccc2c(c1)[C@]1(C(=O)N2)[C@H](C(=O)N2CCCCCCC2)[C@H]2C(=O)O[C@H](c3ccccc3)[C@H](c3ccccc3)N2[C@@H]1c1ccccc1OCCO)C(=O)OC
composite z-score: 5.41

compound: CCCC[C@@H]1C[C@H]1[C@@H](NC(=O)c1ccccc1)c1ccccc1
composite z-score: 0.506
